Biological target: Adenosine receptor A2a (Rattus norvegicus) (UniProt P30543)
Sequence (P30543 whole entry): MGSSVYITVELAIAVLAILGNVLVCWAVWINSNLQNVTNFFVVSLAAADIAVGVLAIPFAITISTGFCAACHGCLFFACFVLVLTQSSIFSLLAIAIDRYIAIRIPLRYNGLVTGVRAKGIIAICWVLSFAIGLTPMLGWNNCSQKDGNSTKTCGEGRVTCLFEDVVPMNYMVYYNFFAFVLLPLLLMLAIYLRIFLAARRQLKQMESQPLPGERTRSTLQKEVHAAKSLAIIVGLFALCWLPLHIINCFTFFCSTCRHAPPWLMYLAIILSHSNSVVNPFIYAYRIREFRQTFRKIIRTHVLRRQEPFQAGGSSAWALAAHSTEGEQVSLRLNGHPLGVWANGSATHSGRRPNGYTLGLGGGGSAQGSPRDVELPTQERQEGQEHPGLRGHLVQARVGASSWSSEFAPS
Assay: Displacement of specific [3H]-CGS- 21680 binding at adenosine A2A receptor in rat striatal membranes.
Assay type: cell membranes
Design: concentration or dose not given beside the values
Conditions: Membrane; concentration not given here
valueType: inhibition (%)

>  <compound>
CCO/C(O)=C1\C(C)=NC(c2ccccc2)=C(C(=O)OCc2cccc(C)c2)C1C#Cc1ccccc1 (centres undefined)

>  <subjectOfTest>
Adenosine receptor A2a (Rattus norvegicus) (UniProt P30543)

>  <outputUnit>
%

>  <readoutNumber>
16

$$$$
>  <compound>
CCOC(=O)C1=C(C(F)(F)F)N=C(C)/C(=C(/O)OCC)C1C#Cc1ccccc1 (centres undefined)

>  <subjectOfTest>
Adenosine receptor A2a (Rattus norvegicus) (UniProt P30543)

>  <outputUnit>
%

>  <readoutNumber>
25

$$$$
>  <compound>
CCNC(=O)C1=C(c2ccccc2)N=C(C)/C(=C(/O)OCC)C1C#Cc1ccccc1 (centres undefined)

>  <subjectOfTest>
Adenosine receptor A2a (Rattus norvegicus) (UniProt P30543)

>  <outputUnit>
%

>  <readoutNumber>
47

$$$$
>  <compound>
CCO/C(O)=C1\C(C)=NC(c2ccccc2)=C(C(=O)O)C1C#Cc1ccccc1 (centres undefined)

>  <subjectOfTest>
Adenosine receptor A2a (Rattus norvegicus) (UniProt P30543)

>  <outputUnit>
%

>  <readoutNumber>
16

$$$$
>  <compound>
CCCO/C(O)=C1\C(C)=NC(c2ccccc2)=C(C(=O)OCc2ccccc2)C1C#Cc1ccccc1 (centres undefined)

>  <subjectOfTest>
Adenosine receptor A2a (Rattus norvegicus) (UniProt P30543)

>  <outputUnit>
%

>  <readoutNumber>
16

$$$$
>  <compound>
CCOC(=O)C1=C(c2ccccc2)NC(C)=C(C(C)=O)C1C#Cc1ccccc1 (centres undefined)

>  <subjectOfTest>
Adenosine receptor A2a (Rattus norvegicus) (UniProt P30543)

>  <outputUnit>
%

>  <readoutNumber>
17

$$$$
>  <compound>
CCOC(=O)C1=C(c2ccccc2)N=C2CCCC(O)=C2C1C#Cc1ccccc1 (centres undefined)

>  <subjectOfTest>
Adenosine receptor A2a (Rattus norvegicus) (UniProt P30543)

>  <outputUnit>
%

>  <readoutNumber>
22

$$$$
>  <compound>
CCO/C(O)=C1\C(C)=NC(c2ccccc2)=C(C(=O)OCc2ccc(C(=O)NCCN)cc2)C1C#Cc1ccccc1 (centres undefined)

>  <subjectOfTest>
Adenosine receptor A2a (Rattus norvegicus) (UniProt P30543)

>  <outputUnit>
%

>  <readoutNumber>
39

$$$$
>  <compound>
CCOC(=O)C1=C(c2ccccc2)N=C(C)/C(=C(/O)OCC)C1c1cccs1 (centres undefined)

>  <subjectOfTest>
Adenosine receptor A2a (Rattus norvegicus) (UniProt P30543)

>  <outputUnit>
%

>  <readoutNumber>
36

$$$$
